Numbers sourced from patent US20110300138A1.

Molecular target: T1, thyroid stimulating hormone receptor (full length human TSHR) (human, UniProt P16473 22-764)
T1 construct: Full length TSHR coated onto plastic tubes (TSHR coated tubes, as in WO2004/050708A2); also called TSH receptor
Assay: competitor ^125I-K1-70 IgG, TSHR coated tubes; 0.03 µg/mL in assay buffer

Binder | Inhibition of binding (%)
K1-18 Fab (Fab, V domains shown) VH: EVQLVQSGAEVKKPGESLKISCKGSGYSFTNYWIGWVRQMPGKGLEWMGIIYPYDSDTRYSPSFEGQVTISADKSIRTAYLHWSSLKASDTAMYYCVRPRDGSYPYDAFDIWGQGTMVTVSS VL: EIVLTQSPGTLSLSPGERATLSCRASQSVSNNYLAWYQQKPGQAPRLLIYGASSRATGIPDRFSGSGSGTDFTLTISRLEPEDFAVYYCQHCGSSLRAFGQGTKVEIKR | 31.3%
K1-18 IgG (antibody, V domains shown, Human IgG1 kappa purified from hetero-hybridoma supernatant; it is not part of the secreted protein; also called human monoclonal TSHR autoantibody K1-18 (stimulating)) VH: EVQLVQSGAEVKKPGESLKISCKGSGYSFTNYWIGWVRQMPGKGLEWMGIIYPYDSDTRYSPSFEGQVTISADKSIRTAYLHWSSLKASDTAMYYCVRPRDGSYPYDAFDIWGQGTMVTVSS VL: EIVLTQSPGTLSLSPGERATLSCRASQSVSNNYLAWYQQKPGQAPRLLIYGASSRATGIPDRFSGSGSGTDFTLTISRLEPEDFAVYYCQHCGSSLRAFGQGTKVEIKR | 53.9%
K1-70 Fab (Fab, V domains shown) VH: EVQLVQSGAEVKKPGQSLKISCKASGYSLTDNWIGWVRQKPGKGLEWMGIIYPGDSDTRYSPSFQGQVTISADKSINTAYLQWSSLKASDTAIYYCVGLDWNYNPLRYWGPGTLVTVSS VL: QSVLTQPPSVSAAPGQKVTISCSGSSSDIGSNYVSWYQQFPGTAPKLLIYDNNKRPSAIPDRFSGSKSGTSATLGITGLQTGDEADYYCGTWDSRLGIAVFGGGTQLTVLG | 81.7%
K1-70 IgG (antibody, V domains shown, Human IgG1 lambda purified from hetero-hybridoma supernatant) VH: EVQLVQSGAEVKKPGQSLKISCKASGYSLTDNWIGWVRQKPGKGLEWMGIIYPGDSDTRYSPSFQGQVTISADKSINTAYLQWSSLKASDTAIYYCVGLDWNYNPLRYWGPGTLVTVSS VL: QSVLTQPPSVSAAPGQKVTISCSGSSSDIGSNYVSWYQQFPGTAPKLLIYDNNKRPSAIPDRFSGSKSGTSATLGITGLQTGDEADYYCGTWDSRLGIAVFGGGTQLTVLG | 74.2%
